- TESTED TARGET: Histone acetyltransferase RTT109 (Candida albicans (strain SC5314 / ATCC MYA-2876))
- ASSAY NAME: C. albicans Rtt109 HAT inhibition curves – biochemical, cherry-picked hits, plate reader, dose response (AID 588764)
- PARTICULARS: Rtt109/Vps75 HAT activity, at 19.5 µM (top of the series)
Inconclusive results are not listed. The source made the active and inactive calls. No rule for the calls is given here.
OBSERVABLE: activity change, negative = inhibition

CCN1/C(=C/c2ccc3cc(C)ccc3[n+]2CC)Sc2cc(C)ccc21 = inactive
C#CCOCCOCCOCCNc1nc(N2CCN(C(=O)C([C@@H](C)O)n3cc([C@@H](N)CCCCN)nn3)CC2)nc(N2CCN(C(=O)[C@H](CCCCN)n3cc(CN)nn3)CC2)n1 (some centres undefined) = inactive
CCc1cccc(NC(=O)C2CCCN(c3ncnc4c3nc3n4CCCCC3)C2)c1 (centres undefined) = inactive
CCOc1ccc(N2C(=O)CC(Sc3ccccc3C(=O)O)C2=O)c([N+](=O)[O-])c1 (centres undefined) = inactive
CN(C)c1ccc(/C=C/c2cc[n+](C)c3ccccc23)cc1 = inactive
CC(C)C[C@@H]1CN=C(N)N1C[C@@H]1CCCN1C[C@H](C)N1C[C@@H](Cc2ccccc2)N(CCc2ccc(Cl)c(Cl)c2)C1=N = inactive

Quick note, activity change, negative = inhibition for CCCCCCCCCn1c2c(c(=N)c3c1CCC3)CCC2 landed at inactive

Quick note, activity change, negative = inhibition for CCCCc1ccc(-n2c(Cc3cccs3)n[nH]c2=S)cc1 landed at inactive

Quick note, activity change, negative = inhibition for CC(C)C(=O)Nc1nnc(CCN2CCCCC2)s1 landed at inactive
